# Test system: Plasmodium falciparum
# EXPERIMENTAL DETAILS: Antiplasmodial activity against Plasmodium falciparum 3D7
# Assay type: functional, organism-based
As shown below, each of these molecules has a reported EC50 value.
RECORDED ENDPOINT: EC50

INSERT INTO measurements (record_smiles, observed) VALUES
  ('COc1ccccc1CNC(=O)CCn1c(=O)[nH]c2ccsc2c1=O', '70 nM'),
  ('COc1ccccc1CNC(=O)CCn1c(=O)[nH]c2ccccc2c1=O', '70 nM');

----------
# EXPERIMENTAL DETAILS: AUC (0 to 7 hrs) in mouse at 140 micromol/kg, po
# Type: ADME
# Set-up: time < 7 hr, route oral, dose 140 µmol/kg
# MEASUREMENT CONTEXT: in vivo, 140 µmol/kg
RECORDED ENDPOINT: AUC(0-t) at 7 h

INSERT INTO results (record_smiles, recorded_endpoint, observed) VALUES
  ('COc1ccccc1CNC(=O)CCn1c(=O)[nH]c2ccccc2c1=O', 'AUC(0-t) at 7 h', '72.9 nM·h');

----------
# System: Plasmodium falciparum
# EXPERIMENTAL DETAILS: Antiplasmodial activity against Plasmodium falciparum FCR3
# Type: functional, organism-based
pEC50: −log10 of the molar value.
RECORDED ENDPOINT: pEC50

INSERT INTO measurements (record_smiles, recorded_endpoint, observed) VALUES
  ('COc1ccccc1CNC(=O)CCn1c(=O)[nH]c2ccsc2c1=O', 'pEC50', 7.15),
  ('COc1ccccc1CNC(=O)CCn1c(=O)[nH]c2ccccc2c1=O', 'pEC50', 7.15);

----------
# TARGET DESC: hERG (KCNH2) (Homo sapiens)
# Sequence (Q12809 whole entry): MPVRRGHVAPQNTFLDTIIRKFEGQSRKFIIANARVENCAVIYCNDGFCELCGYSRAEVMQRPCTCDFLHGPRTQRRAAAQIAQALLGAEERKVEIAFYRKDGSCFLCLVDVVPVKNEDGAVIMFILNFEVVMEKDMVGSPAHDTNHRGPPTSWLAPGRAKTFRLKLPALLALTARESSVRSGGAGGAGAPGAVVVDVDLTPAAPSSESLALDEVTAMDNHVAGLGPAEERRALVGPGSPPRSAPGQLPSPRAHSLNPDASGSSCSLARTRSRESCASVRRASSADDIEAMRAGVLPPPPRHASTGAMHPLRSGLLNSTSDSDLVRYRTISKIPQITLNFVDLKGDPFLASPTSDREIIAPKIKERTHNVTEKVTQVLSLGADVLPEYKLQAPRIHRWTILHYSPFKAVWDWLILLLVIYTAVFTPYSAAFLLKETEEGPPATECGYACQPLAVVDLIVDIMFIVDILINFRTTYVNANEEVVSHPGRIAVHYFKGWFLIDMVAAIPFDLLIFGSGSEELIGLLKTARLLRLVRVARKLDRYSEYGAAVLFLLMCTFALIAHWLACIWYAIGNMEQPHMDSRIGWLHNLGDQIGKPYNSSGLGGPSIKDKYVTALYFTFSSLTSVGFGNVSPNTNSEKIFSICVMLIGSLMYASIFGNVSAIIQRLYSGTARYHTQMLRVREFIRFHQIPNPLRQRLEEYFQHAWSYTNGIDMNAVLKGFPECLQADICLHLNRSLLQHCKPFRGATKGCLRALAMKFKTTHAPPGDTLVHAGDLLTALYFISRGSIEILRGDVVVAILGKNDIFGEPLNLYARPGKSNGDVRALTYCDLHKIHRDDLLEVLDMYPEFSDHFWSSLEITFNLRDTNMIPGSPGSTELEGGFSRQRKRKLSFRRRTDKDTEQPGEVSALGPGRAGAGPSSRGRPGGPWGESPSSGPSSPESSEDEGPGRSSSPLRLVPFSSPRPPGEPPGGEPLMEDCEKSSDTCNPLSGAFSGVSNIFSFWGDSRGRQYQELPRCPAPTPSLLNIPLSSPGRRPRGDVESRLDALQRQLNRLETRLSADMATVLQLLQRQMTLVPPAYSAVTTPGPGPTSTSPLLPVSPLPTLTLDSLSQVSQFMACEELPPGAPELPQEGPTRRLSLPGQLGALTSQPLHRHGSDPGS
# EXPERIMENTAL DETAILS: Inhibition of human ERG at 11 uM
RECORDED ENDPOINT: inhibition at 11 µM (%)

INSERT INTO measurements (record_smiles, target_desc, observed) VALUES
  ('COc1ccccc1CNC(=O)CCn1c(=O)[nH]c2ccccc2c1=O', 'hERG (KCNH2) (Homo sapiens)', 19),
  ('COc1ccccc1CNC(=O)CCn1c(=O)[nH]c2ccsc2c1=O', 'hERG (KCNH2) (Homo sapiens)', 5);

----------
As shown below, each of these compounds has a reported pEC50 value.
# System: Plasmodium falciparum
# EXPERIMENTAL DETAILS: Antimalarial activity against chloroquine-resistant Plasmodium falciparum FcB1(CQR)Colombia assessed as parasite growth inhibition
# Format: functional, organism-based
pEC50: −log10 of the molar value.
RECORDED ENDPOINT: pEC50

INSERT INTO measurements (record_smiles, rel, observed) VALUES
  ('O=C(CCn1c(=O)[nH]c2ccccc2c1=O)NCc1ccccc1Cl', '=', 4.43),
  ('COc1cc(F)ccc1CNC(=O)CCn1c(=O)[nH]c2ccccc2c1=O', '=', 5.30),
  ('COc1ccccc1CNC(=O)CCCn1c(=O)[nH]c2ccccc2c1=O', '=', 4.77),
  ('CCOc1ccccc1CNC(=O)CCn1c(=O)[nH]c2ccccc2c1=O', '=', 5.26),
  ('COc1ccccc1CCNC(=O)CCCn1c(=O)[nH]c2ccccc2c1=O', '=', 5.11),
  ('COc1cc(F)c(F)cc1CNC(=O)CCn1c(=O)[nH]c2ccccc2c1=O', '=', 4.95),
  ('COc1ccccc1CNC(=O)CCn1c(=O)[nH]c2ccccc2c1=O', '=', 6.40),
  ('CC(C)CCNC(=O)CCn1c(=O)[nH]c2ccccc2c1=O', '<', 4.60),
  ('COc1ccccc1CCNC(=O)CCn1c(=O)[nH]c2ccccc2c1=O', '=', 5.00),
  ('O=C(CCn1c(=O)[nH]c2ccccc2c1=O)NCc1ccccc1OC(F)(F)F', '=', 5.17),
  ('O=C(CCn1c(=O)[nH]c2ccccc2c1=O)NCc1ccccc1OC(F)F', '=', 4.49),
  ('COc1ccccc1CNC(=O)CCn1c(=O)[nH]c2ccc(F)cc2c1=O', '=', 4.70),
  ('CC(C)CCNC(=O)CCCn1c(=O)[nH]c2ccccc2c1=O', '<', 4.60);

Recorded values, source ChEMBL document CHEMBL4840368.
